The measured values listed here are drawn from PubChem BioAssay (NCATS).

For each record, write down the corresponding activity change, negative = inhibition.
experiment: AP1 Signaling Pathway (AID 357); settings: ME-180 AP-1-bla reporter, EGF-induced, beta-lactamase ratio, 5 h; at 17.2 µM (top of the series) unless noted;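 note: ME-180 reporter cells stimulated with EGF at its EC50 level; % is set by controls: 0 for no effect and ±100 for the full control effect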
Records with an inconclusive call do not appear. Activity calls are given as the source filed them. Calls come from the whole dose curve; as a rule, active = well fitted curve in either direction with a large enough effect (not every such curve was filed as active); inconclusive = small, poorly fitted or top-dose-only effect, or another doubt; inactive = flat fitted curve, though single readings scatter.

// fetch activity change, negative = inhibition given entry NC(=O)C1CCN(C2OC(=O)c3ccccc32)CC1 (stereo not drawn) 2.97% (inactive)

Quickly give me recorded activity change, negative = inhibition for Cn1c(N2CCOCC2)nc2c1c(=O)n(Cc1ccc(Cl)cc1)c(=O)n2C 1.13% (inactive)

Return the recorded activity change, negative = inhibition value; entry: CCN(CC)CCCC1(CN)OCCc2ccccc21 (stereo not drawn) 19.8% (inactive)

Answer with the recorded activity change, negative = inhibition for the compound listed here: N#CC1=C2SCC(O)(c3ccccc3)N2C(=O)CC1c1ccccc1 (stereo not drawn) -17.2% (inactive)

Give the measured activity change, negative = inhibition for COc1ccc(OC)c(C2C(C(=O)c3ccco3)=C(O)C(=O)N2CCCN2CCOCC2)c1 (stereo not drawn) 11.5% (inactive)

Provide only the value of recorded activity change, negative = inhibition for CCOc1cccc(NC(=O)C2CC(=O)NC(=Nc3ccccc3)S2)c1 (stereo not drawn) -5.62% (inactive)

Respond only with activity change, negative = inhibition recorded for CN1C(=O)NC(NC(=O)c2ccco2)(C(F)(F)F)C1=O (stereo not drawn) 3.54% (inactive)

Indicate its recorded activity change, negative = inhibition; the compound in question is Cc1cc(COc2ccccc2OCCN2CCN(C)CC2)no1 21.4% (inactive)

Report measured activity change, negative = inhibition; entry is Clc1ccccc1-c1nn2c(-c3ccccn3)nnc2s1 -2.63% (inactive)

Tell me measured activity change, negative = inhibition for C(=N\n1cnnc1)/c1ccccn1 please. 1.5% (inactive)

Please report the measured activity change, negative = inhibition for COc1ccc(OC)c(C2/C(=C(/O)c3cnn(-c4ccccc4)c3C)C(=O)C(=O)N2CCN(C)C)c1 (stereo not drawn) 0.346% (inactive)

Using known records, supply activity change, negative = inhibition for CC1(C)Cc2nc(N)c(C(=O)NCCO)cc2CO1 8.22% (inactive)

Provide activity change, negative = inhibition value for the following compound: CC(=O)[C@@]1(O)CC[C@@H]2[C@@H]3CCC4=CC(=O)CC[C@@]4(C)[C@H]3CC[C@]21C 4.89% [at 38 µM] (inactive)

Assign activity change, negative = inhibition to the following record: Cn1nnnc1SCC(=O)NCC(=O)c1ccccc1 -2.72% (inactive)

Return activity change, negative = inhibition for the following compound: O=C(Oc1cccnc1)c1ccco1 7.51% (inactive)

Complete the entry with activity change, negative = inhibition for c1ccc(CN2CCN(c3nc(-c4ccccn4)nc4ccccc34)CC2)cc1 14.9% (inactive)

Give the reported value of activity change, negative = inhibition for this record: CCCCC(CCC(=O)Nc1ccc(C(=O)OC)cc1)C(=O)O (stereo not drawn) 9.55% (inactive)

Input O=c1[nH]c(-c2ccccn2)nc2ccccc12 , output reported activity change, negative = inhibition. -2.38% (inactive)

State, in one line, measured activity change, negative = inhibition of Nc1nnnn1/N=C/c1ccco1 2.89% (inactive)

Identify measured activity change, negative = inhibition associated with CSc1nc(N)nc(SCC(=O)OC(C)C)c1C#N -15.6% (inactive)

Complete the entry with activity change, negative = inhibition for COc1ccc(OC)c(C2/C(=C(/O)c3ccccc3)C(=O)C(=O)N2Cc2ccco2)c1 (stereo not drawn) -4.43% (inactive)

// Input: Cc1c(/C(O)=C2\C(=O)C(=O)N(CCCN(C)C)C2c2ccccc2)cnn1-c1ccccc1 (stereo not drawn) . Output its activity change, negative = inhibition only. -3.19% (inactive)

Read off the recorded activity change, negative = inhibition for Cc1ccc(C2C(C(=O)c3cc4ccccc4o3)=C(O)C(=O)N2CCN(C)C)o1 (stereo not drawn) -1.56% (inactive)

---

Consider the following compounds; for each one, report its activity change, negative = inhibition.
Assay: AP1 Signaling Pathway (AID 357);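 note: ME-180 reporter cells stimulated with EGF at its EC50 level; % is set by controls: 0 for no effect and ±100 for the full control effect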
Details: ME-180 (cervical carcinoma) AP-1-bla reporter, EGF-induced, beta-lactamase ratio, 5 h; at 17.2 µM (top of the series) unless noted
Procedure: NCGC Assay Overview: Activator protein-1 (AP-1), a transcription factor, plays an important role in tumor genesis by regulating genes involved in cell proliferation, differentiation, apoptosis, and angiogenesis. AP-1 activity is induced by a complex network of signaling pathways that involves extracellular signals, such as growth factors. […] Library compounds were measured for their ability to modulate positively or negatively the action of EC50 EGF on reporter gene activity. […]
Inconclusive results are not listed.
The response must be a number in % with no trailing unit.

Give activity change, negative = inhibition for the following compound: CCSc1nc2sc3c(c2c(=O)n1C1CCCCC1)CCN(C)C3 4.46

Please give measured activity change, negative = inhibition of the following entry: COc1cccc(-c2nc(N3CCC(C)CC3)c3ccccc3n2)c1O 16.6

Kindly indicate its recorded activity change, negative = inhibition. Item: CCCCCOC(=O)C(C)c1c(C)[nH]c(=S)[nH]c1=O (configuration not stated) 7.28

Name the recorded activity change, negative = inhibition of the compound listed here: C=CCOn1c(=O)c(-c2ccc(OC)cc2)[n+]([O-])c2ccccc21 -22.9

Please list activity change, negative = inhibition recorded for the compound Cc1nc2c(c(=O)n1CC1CCCO1)c1nc3ccccc3nc1n2CCC(C)C (configuration not stated) 6.32

Kindly indicate its recorded activity change, negative = inhibition. Item: O=C(CNC1=NCCC1)c1ccc2c(c1)OCCO2 5.51

Return the recorded activity change, negative = inhibition value; entry: C/C=C/c1ccccc1OCc1ccc(C(=O)O)o1 -6.57

Give the reported value of activity change, negative = inhibition for this record: COCc1cc(C)nc(SCC(=O)Nc2ccc(C)c(C)c2)c1C#N 2.07

Give the reported value of activity change, negative = inhibition for this record: COc1cccc(C2C(C#N)=C(N)Oc3cc(C)[nH]c(=O)c32)c1OC (configuration not stated) -18.5

Specify reported activity change, negative = inhibition for the compound shown: CCCOc1ccc(CSC(CC(=O)O)C(=O)O)cc1 (configuration not stated) 4.79

Please report the measured activity change, negative = inhibition for CCOC(=O)c1c(N)sc(=S)c2c1CCC2 -21.1

Output activity change, negative = inhibition of COc1ccc(CCNc2oc(COc3ccccc3)nc2C#N)cc1 -23

---

test system: JCK; assay: qHTS profiling for inhibitors of Plasmodium falciparum proliferation (AID 504749); note: nearly all actives have a fitted effect of over 60% in size; conditions: P. falciparum in erythrocytes, SYBR Green DNA, 72 h; series mostly up to 28.7 µM
Results filed as inconclusive are left out. Activity calls are given as the source filed them. Calls follow the shape of the dose curve; as a rule, active = well fitted inhibition curve with a large enough effect; inconclusive = small, poorly fitted or top-dose-only effect; inactive = flat fitted curve, though single readings scatter.
# valid calls are TRUE = active, FALSE = inactive; nothing else

Just curious, what result did CCCC(=O)O[C@]1(C(=O)COC(C)=O)CC[C@H]2C3C[C@H](F)C4=CC(=O)C=CC4(C)[C@@]3(F)[C@@H](O)CC21C (stereo partly drawn) get here? FALSE

Please state the recorded outcome for this compound: CC(=O)C1(O)Cc2c(O)c3c(c(O)c2C(OC2CC(N)C(O)C(C)O2)C1)C(=O)c1c(O)cccc1C3=O (stereo not drawn) TRUE

Fill in: this test's call for CC[C@]1([C@H]2O[C@@H]([C@@H]3O[C@](O)(CO)[C@@H](C)C[C@H]3C)C[C@H]2C)CC[C@@H]([C@]2(C)CC[C@@]3(C[C@@H](O)[C@@H](C)[C@@H]([C@H](C)[C@H](OC)[C@H](C)C(=O)O)O3)O2)O1 is ___ TRUE

---

system: CP211; assay: qHTS profiling for inhibitors of Plasmodium falciparum proliferation (AID 504749); note: nearly all actives have a fitted effect of over 60% in size; settings: P. falciparum in erythrocytes, SYBR Green DNA, 72 h; series mostly up to 28.7 µM
Results filed as inconclusive are left out. The source made the active and inactive calls. Calls follow the shape of the dose curve; as a rule, active = well fitted inhibition curve with a large enough effect; inconclusive = small, poorly fitted or top-dose-only effect; inactive = flat fitted curve, though single readings scatter.
Permitted responses: 1 for active, -1 for inactive

What is the recorded call for this compound in the test? C[C@]12CCC(=O)C=C1[C@@H]1C[C@H]1[C@H]1[C@@H]3[C@@H]4C[C@H]4[C@@]4(CCC(=O)O4)[C@@]3(C)CC[C@@H]12 -1

Tell me the assay call for CC[C@@]1(O)C[C@H](O[C@H]2C[C@@H](N(C)C)[C@@H](O[C@H]3C[C@@H](O)[C@@H](O[C@H]4CCC(=O)[C@@H](C)O4)[C@@H](C)O3)[C@@H](C)O2)c2c(cc3c(c2O)C(=O)c2c(O)cccc2C3=O)[C@H]1C(=O)OC please. 1

What classification did C/C=C1/NN(CCCN2CCN(c3cccc(Cl)c3)CC2)C(=O)N1CCOc1ccccc1 end up with in this test? -1

Recorded test call requested for CCC(=O)O[C@]1(C(=O)CCl)[C@@H](C)CC2C3C[C@H](F)C4=CC(=O)C=CC4(C)[C@@]3(F)C(O)CC21C (some centres undefined) 1

---

system: DIV30; experiment: qHTS profiling for inhibitors of Plasmodium falciparum proliferation (AID 504749); note: nearly all actives have a fitted effect of over 60% in size; details: P. falciparum in erythrocytes, SYBR Green DNA, 72 h; series mostly up to 28.7 µM
Inconclusive results are not listed. Activity calls are given as the source filed them. Calls come from the whole dose curve; as a rule, active = well fitted inhibition curve with a large enough effect; inconclusive = small, poorly fitted or top-dose-only effect; inactive = flat fitted curve, though single readings scatter.
Log the outcome using a class from active, inactive

Outcome? CNC(=O)C(N)CSC(C)C1=C(C)c2cc3[n-]c(cc4nc(cc5[n-]c(cc1n2)c(C)c5CCC(=O)O)C(CCC(=O)O)=C4C)c(C)c3C(C)SCC(N)C(=O)NC.[Fe+2] (stereo not drawn) inactive

Hello, I am checking results. What call was entered for OCC(O)C(O)C(O)C(O)CO (stereo not drawn) ? inactive

Answer briefly: the call reported for OCCOC[C@H]1O[C@H](OCCO)[C@H](OCCO)[C@@H](OCCO)[C@@H]1OCCO (tested in a mixture with another compound) in this assay. inactive

Which result was noted for this molecule in the test: Cc1ccc(/C=C2/C(=O)C3(C)CCC2C3(C)C)cc1 (stereo not drawn) inactive

Which outcome was assigned to CCCC[C@H]1C(=O)N(c2ccccc2)N(c2ccc(O)cc2)C1=O in this test? inactive

GET /call?item= CCCCCCCCCCCCCCCC(=O)OCC(COP(=O)(O)OCC[N+](C)(C)C)OC(=O)CCCCCCCCCCCCCCC (stereo not drawn) returns the recorded outcome of this test. inactive

Per the assay record, what outcome was assigned to CC12C=CC(=O)C=C1[C@@H](F)CC1C2C(O)CC2(C)C1CC[C@]2(O)C(=O)CO (stereo partly drawn) ? inactive

Please let me know the test result on file for C[n+]1c2cc(N)ccc2cc2ccc(N)cc21 . active

Per the records of this test, what outcome belongs to Cc1onc(-c2c(F)cccc2Cl)c1C(=O)NC1C(=O)N2C1SC(C)(C)C2C(=O)O (stereo not drawn) ? inactive

Hello, I am checking results. What call was entered for CN[C@H](C)CCC=C(C)C ? active

Returns: the outcome recorded for C#C[C@@]1(O)CC[C@@H]2[C@H]3CCC4=C/C(=N\O)CC[C@H]4[C@@H]3CC[C@]21CC in this assay. inactive

What call does the record list for NC[C@@H]1O[C@H](OC2[C@@H](CO)O[C@@H](OC3[C@H](O)[C@H](N)C[C@H](N)[C@H]3OC3O[C@H](CO)[C@@H](O)[C@H](O)[C@@H]3N)[C@H]2O)C(N)[C@H](O)[C@@H]1O (stereo partly drawn) ? inactive

Could you please tell me the result logged for CCCC(=O)Nc1c(I)cc(I)c(C[C@H](CC)C(=O)O)c1I in this assay? inactive

Give the logged outcome of this assay for the following molecule: CCOc1ccccc1O[C@@H](c1ccccc1)[C@@H]1CNCCO1 active

# lookup: test call for Cc1cnc(NC(=O)C2C(=O)c3ccccc3S(=O)(=O)N2C)s1 (stereo not drawn) inactive

Any idea what this test logged for CC(CN1CC(=O)NC(=O)C1)N1CC(=O)NC(=O)C1 (stereo not drawn) ? inactive

Recorded call for CC[C@@]1(O)CC2CN(CCc3c([nH]c4ccccc34)[C@](C(=O)OC)(c3cc4c(cc3OC)N(C)C3[C@@](O)(C(=O)OC)C(OC(C)=O)[C@]5(CC)C=CCN6CC[C@@]43C65)C2)C1 (stereo partly drawn) ? active

Hey, what did the test say about CC1(C)O[C@@H]2C[C@H]3[C@@H]4CCC5=CC(=O)C=C[C@]5(C)[C@H]4C(O)C[C@]3(C)[C@]2(C(=O)CO)O1 (stereo partly drawn) ? inactive
